TEST_TARGET: galectin-3 (Homo sapiens)
Sequence (P17931 whole entry): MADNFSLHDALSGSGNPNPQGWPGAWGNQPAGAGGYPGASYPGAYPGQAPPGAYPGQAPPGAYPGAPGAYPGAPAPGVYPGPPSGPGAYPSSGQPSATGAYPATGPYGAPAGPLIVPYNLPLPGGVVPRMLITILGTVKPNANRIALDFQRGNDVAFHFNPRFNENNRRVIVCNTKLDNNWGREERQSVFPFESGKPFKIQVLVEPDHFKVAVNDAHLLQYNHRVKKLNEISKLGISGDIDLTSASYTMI
TEST_DETAILS: Competitive fluorescence polarization, galectin-3 (performed as described in ref 13)
Reported Kd values for a set of compounds
READOUT: Kd (µM)

> print(dat)
                                   compound                test.target  readout  value.unit  test.value
1  O=C(O)CS[C@@H]1O[C@H](CO)[C@H](O)[C@H](O)[C@H]1O [compound 17, reference compound]  galectin-3 (Homo sapiens)       Kd          µM        1800
2  O=C(O)CS[C@@H]1O[C@H](CO)[C@H](O)[C@H](n2cc(-c3ccsc3)nn2)[C@H]1O [compound 12]  galectin-3 (Homo sapiens)       Kd          µM         200
3  O=C(O)CS[C@@H]1O[C@H](CO)[C@H](O)[C@H](n2cc(-c3cscn3)nn2)[C@H]1O [compound 14]  galectin-3 (Homo sapiens)       Kd          µM         540
4  O=C(O)CS[C@@H]1O[C@H](CO)[C@H](O)[C@H](n2cc(-c3nccs3)nn2)[C@H]1O [compound 13]  galectin-3 (Homo sapiens)       Kd          µM         280
5  O=C(O)CS[C@@H]1O[C@H](CO)[C@H](O)[C@H](n2cc(-c3cncs3)nn2)[C@H]1O [compound 15]  galectin-3 (Homo sapiens)       Kd          µM         430
